Literature survey of IC50 (system: UniProtKB P00489).
Define the label as 1 when IC50 is strictly less than 50 µM and as 0 in all remaining cases.

The examples below pair each entry with its known result.
CC1(C)C2CC[C@]3(C)[C@H](C(=O)C=C4[C@@H]5C[C@@](C)(C(=O)O)CC[C@]5(C)CC[C@]43C)[C@@]2(C)CC[C@@H]1O (stereo partly drawn)
0
O=c1[nH]c2ccccc2nc1Nc1ccccc1
1
Cn1c(=O)c(Nc2ccc(-c3ccc[nH]3)cc2)nc2ccccc21
1
CCCCCCCCCCCCCCCCCC(=O)OCc1cn(CC(=O)O[C@H]2CC[C@]3(C)[C@H]4CC=C5[C@@H]6CC(C)(C)CC[C@]6(C(=O)O)CC[C@@]5(C)[C@]4(C)CC[C@H]3C2(C)C)nn1
1
Cn1c(=O)c(Nc2ccc(-c3ccoc3)cc2)nc2ccccc21
1

Does CCCCCCCCCCCCCCCC(=O)OCc1cn(CC(=O)O[C@H]2CC[C@]3(C)[C@H]4CC=C5[C@@H]6CC(C)(C)CC[C@]6(C(=O)O)CC[C@@]5(C)[C@]4(C)CC[C@H]3C2(C)C)nn1 have IC50 strictly under 50 µM?
0

Does CC1(C)C2CC[C@]3(C)[C@H](C(=O)C=C4[C@@H]5C[C@@](C)(C(=O)O)CC[C@]5(C)CC[C@]43C)[C@@]2(C)CC[C@@H]1O[C@H]1O[C@H](C(=O)O)[C@@H](O)[C@H](O)[C@H]1O[C@@H]1O[C@H](C(=O)O)[C@@H](O)[C@H](O)[C@H]1O (stereo partly drawn) have IC50 strictly under 50 µM?
0

Does CC1(C)CC[C@]2(C(=O)O[C@@H]3O[C@H](CO)[C@@H](O)[C@H](O)[C@H]3O)CC[C@]3(C)C(=CC[C@@H]4[C@@]5(C)CC[C@H](O)C(C)(C)C5CC[C@]43C)[C@@H]2C1 (stereo partly drawn) have IC50 strictly under 50 µM?
0

Does CC1(C)CC[C@]2(C(=O)OCc3ccccc3)CC[C@]3(C)C(=CC[C@@H]4[C@@]5(C)CC[C@H](O)C(C)(C)[C@@H]5CC[C@]43C)[C@@H]2C1 have IC50 strictly under 50 µM?
0

Does O=C(O)Cn1c(=O)c(Nc2ccc(C(=O)NCc3cccs3)cc2)nc2ccccc21 have IC50 strictly under 50 µM?
1
